System: vomeronasal organ (VNO)
Test: Electrovomerogram (EVG) after airborne delivery of substance to the vomeronasal organ
Format: in vivo, human
Conditions: males (M); 2 second pulses to VNO; diluted in propylene glycol; number in cell = compound with effect
parameter: EVG (electrovomerogram): compound found to have an effect
Respond with the number and no other words.

{"compound": "CCCC=C1CCC2C3CCc4cc(O)ccc4C3=CCC12C (stereo not shown)", "quantitative result": 1}
{"compound": "CCCCC1=CC[C@H]2[C@@H]3CCC4=C(CC[C@H](O)C4)[C@H]3CC[C@]12C", "quantitative result": 2}
{"compound": "CCCC=C1CC[C@H]2c3ccc4cc(O)ccc4c3CC[C@]12C", "quantitative result": 7}

Q. Notebook entry, vomeronasal organ (VNO) assay: EVG (electrovomerogram): compound found to have an effect of CCCC=C1CC[C@H]2[C@@H]3C=Cc4cc(O)ccc4[C@H]3CC[C@]12C = ?
A. 3

* * *

System: vomeronasal organ (VNO)
Test: Electrovomerogram (EVG) after airborne delivery of substance to the vomeronasal organ
Format: in vivo, human
Conditions: females (F); 2 second pulses to VNO; diluted in propylene glycol; number in cell = compound with effect
Source text: The stimulation and recording system consists of a “multifunctional miniprobe” described elsewhere (Monti-Bloch, L. and Grosser, B. l. (1991) “Effect of putative pheromones on the electrical activity of the human vomeronasal organ and olfactory epithelium,” J. Steroid Biochem. Molec. Bio. 39:573582). […] Electrical signals from the recording electrode are fed to a DC amplifier after which they are digitized, computer monitored, and stored. […]
Rule: measured EVG (electrovomerogram): compound found to have an effect below 6 gets met; anything equal to or greater than 6 gets not met.

{"compound": "CCCC=C1CC[C@H]2c3ccc4cc(O)ccc4c3CC[C@]12C", "class label": "not met"}
{"compound": "CCCC=C1CCC2C3CCC4=CC(O)CCC4C3CCC12C (centres unmarked)", "class label": "met"}
{"compound": "CCCCC1=CC[C@H]2[C@@H]3CCC4=C(CC[C@H](O)C4)[C@H]3CC[C@]12C", "class label": "met"}

Shifting focus to the compound that follows.
Q. I'd appreciate it if you could check whether CCCC=C1CC[C@H]2[C@@H]3C=Cc4cc(O)ccc4[C@H]3CC[C@]12C has EVG (electrovomerogram): compound found to have an effect smaller than 6.
A. met

* * *

System: vomeronasal organ (VNO)
Experiment: Reflex/autonomic responses (RF, CF, BT, EMG, EEG) to stimulation of the VNO with airborne substance
Type: in vivo, human
Conditions: females (F); 2 second pulses to VNO; number in cell = compound with effect
Procedure: Electrical signals from the recording electrode are fed to a DC amplifier after which they are digitized, computer monitored, and stored. The peak-to-peak amplitude of the signals is measured, and the area under the depolarization wave is integrated, while continuously monitoring the signal both on the computer screen and on a digital oscilloscope. […] Skin temperature (ST) was recorded by a small (1.0 mm) thermistor probe placed in the right ear lobe. […]
parameter: CF (cardiac frequency): compound found to have an effect
Respond with the number and no other words.

{"compound": "CCCCC1=CC[C@H]2[C@@H]3CCc4cc(OC)ccc4[C@H]3CC[C@]12C", "test target": "vomeronasal organ (VNO)", "quantitative result": 11}
{"compound": "CCCC=C1CCC2C3=CCc4cc(O)ccc4C3CCC12C (stereo not shown)", "test target": "vomeronasal organ (VNO)", "quantitative result": 9}
{"compound": "C=C(CCC)[C@H]1CC[C@H]2[C@@H]3CCc4cc(O)ccc4[C@H]3CC[C@]12C", "test target": "vomeronasal organ (VNO)", "quantitative result": 8}

Now look at this entry.
Q. Fill blank: measured CF (cardiac frequency): compound found to have an effect of the compound CCCCC1=CC[C@H]2[C@@H]3CCC4=C(CC[C@@H](O)C4)[C@H]3CC[C@]12C is ____.
A. 10

# credit: patent US6432938B1
